# Tested on: Streptococcus sp. 'group A'
# experiment: Streptococcus pyogenes SK(-)GAS viability under kanamycin – luminescence, BacTiterGlo, confirmation, counter-screen for streptokinase expression inhibitor project, dose response (AID 1900)
# Format: functional, organism-based
Activity calls are given as the source filed them.
# EC50 per record follows
measuredParameter: EC50

INSERT INTO results (compound, subjectoftest, measuredparameter, measuredresult) VALUES
  ('c1ccc2sc(SCSc3nc4ccccc4s3)nc2c1', 'Streptococcus sp. ''group A''', 'EC50', '> 150 µM (not active)'),
  ('O=C1c2ccc3c4c(ccc(c24)C(=O)N1c1cccc(O)c1)C(=O)N(c1cccc(O)c1)C3=O', 'Streptococcus sp. ''group A''', 'EC50', '1.22 µM (active)'),
  ('N=C(N/N=C\c1ccc(Br)cc1)N/N=C\c1ccc(Br)cc1', 'Streptococcus sp. ''group A''', 'EC50', '2.39 µM (active)'),
  ('Cc1nc(N)sc1N=Nc1ccc(F)cc1', 'Streptococcus sp. ''group A''', 'EC50', '5.74 µM (active)'),
  ('Cc1c(Cc2ccccc2)c(=O)oc2cc(OCc3ccc(C(=O)O)cc3)ccc12', 'Streptococcus sp. ''group A''', 'EC50', '7.39 µM (active)'),
  ('COc1ccc(N2CCN(CC(=O)Nc3nc4c(s3)CC(C)CC4)CC2)cc1 (stereo unspecified)', 'Streptococcus sp. ''group A''', 'EC50', '23.8 µM (active)');

----------
# experiment: cells
# Type: functional
Activity calls are given as the source filed them.
measuredParameter: IC50

INSERT INTO results (compoundsmiles, measuredresult) VALUES
  ('O=C(N/N=C\c1ccc([N+](=O)[O-])o1)c1cncc(Br)c1', '3.94 µM (active)'),
  ('CC(=O)Oc1ccc(/C=C2\N=C(C3CCCCC3)OC2=O)cc1', '33.9 µM (active)'),
  ('Cc1cc(C)c2nc(N=C(N)NC(=O)Nc3ccccc3)nc(C)c2c1', '8.18 µM (active)'),
  ('COC(=O)c1cc(/C=C/c2ccccc2)on1', '5.44 µM (active)'),
  ('C/C(=N\NC(=O)c1ccncc1)c1cc2ccccc2oc1=O', '0.55 µM (active)'),
  ('COc1cc(/C=C/c2ccc3c([N+](=O)[O-])cccc3n2)ccc1OCC(=O)O', '2.39 µM (active)');

----------
# subjectOfTest: Genome polyprotein (dengue virus type 2, UniProt P29990)
# experiment: flavivirus cap methylation enzyme inhibition – biochemical, confirmation dose response, primary screen (AID 588689)
# Type: functional
Active and inactive are the calls of the source.
# IC50 per record follows
measuredParameter: IC50

INSERT INTO results (compound, measuredresult) VALUES
  ('O=C(O)c1cccc(NS(=O)(=O)c2ccc(-c3ccc(S(=O)(=O)Nc4cccc(C(=O)O)c4)cc3)cc2)c1', '49.5 µM (active)'),
  ('C/C(=C/CCC(C)[C@H]1CC[C@@]2(C)C3=C(CC[C@]12C)[C@@]1(C)CCC(=O)C(C)(C)[C@@H]1CC3)C(=O)O (some centres not stated)', '47.9 µM (active)'),
  ('O=C(O)CN1C(=O)/C(=C\c2ccccc2OCc2ccc(Cl)cc2Cl)SC1=S', '87.6 µM (active)'),
  ('NC(=O)C1=C(c2ccccc2)c2ccccc2C1=O', '59.5 µM (active)'),
  ('CN1C(=O)NC(=O)/C(=C/c2ccc(C(=O)O)cc2)C1=O', '85.1 µM (active)'),
  ('C=CCOc1ccccc1/C=c1\sc2nc(=O)c(C)nn2c1=O', '12.1 µM (active)'),
  ('Cc1ccc(S(=O)(=O)Nc2ccc3ccccc3c2[N+](=O)[O-])cc1', '31.7 µM (active)');

----------
# subjectOfTest: Ribosomal protein S6 kinase alpha-3 (Homo sapiens, UniProt P51812)
# Sequence (P51812 whole entry): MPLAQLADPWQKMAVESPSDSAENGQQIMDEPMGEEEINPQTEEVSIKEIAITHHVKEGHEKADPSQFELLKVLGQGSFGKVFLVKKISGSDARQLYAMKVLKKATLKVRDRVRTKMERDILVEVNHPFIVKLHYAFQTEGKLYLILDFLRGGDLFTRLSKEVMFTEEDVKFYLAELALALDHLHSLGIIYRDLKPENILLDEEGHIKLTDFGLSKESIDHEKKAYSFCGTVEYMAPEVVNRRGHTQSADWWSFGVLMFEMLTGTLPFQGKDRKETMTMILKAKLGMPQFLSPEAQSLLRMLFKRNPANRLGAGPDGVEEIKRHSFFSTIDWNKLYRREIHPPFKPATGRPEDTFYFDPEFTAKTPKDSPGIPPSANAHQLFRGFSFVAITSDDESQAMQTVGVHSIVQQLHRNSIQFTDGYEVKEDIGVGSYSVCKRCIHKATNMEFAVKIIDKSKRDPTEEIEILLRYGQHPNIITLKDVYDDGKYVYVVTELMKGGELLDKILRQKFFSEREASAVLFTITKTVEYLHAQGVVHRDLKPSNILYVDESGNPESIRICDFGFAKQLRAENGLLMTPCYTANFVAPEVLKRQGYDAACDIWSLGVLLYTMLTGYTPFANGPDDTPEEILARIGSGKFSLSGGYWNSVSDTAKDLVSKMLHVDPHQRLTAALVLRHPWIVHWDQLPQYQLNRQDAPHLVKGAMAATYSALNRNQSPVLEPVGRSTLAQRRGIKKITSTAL
# Assay type: functional
The source made the active and inactive calls.
Outcome codes: 1 (active), 0 (inactive)

INSERT INTO results (compound, answerlabel) VALUES
  ('CCCCC(=O)Nc1cc(-c2c[nH]c3ncccc23)cc(Cl)n1', 0),
  ('COc1cccc(C(C)NC(=O)c2sc(-c3ccncc3)nc2C)c1 (centres undefined)', 0),
  ('Oc1ccc(-c2nc(-c3ccncc3)c(-c3ccc(F)cc3)[nH]2)cc1', 0),
  ('Nc1ccc2[nH]c(=O)cnc2c1', 1);

----------
# Test system: H4
# experiment: Luminescence Cell-Based Dose Response HTS to Identify Activators of 5'UTR Stem-Loop Driven Prion Protein mRNA Translation in H4 Neuroglioblastoma Cells. [Related pubchem assays: 1829 (Project Summary), 1814 (Primary HTS)]
# Assay type: functional
# conditionSummary: Homo sapiens
The source made the active and inactive calls.
# EC50 per record follows
measuredParameter: EC50

INSERT INTO results (compound, measuredparameter, measuredresult) VALUES
  ('Cc1csc(NC(=O)CSc2nsc(SCC(=O)Nc3nc(C)cs3)c2C#N)n1', 'EC50', '> 120 µM (not active)'),
  ('Cc1cccc2cc(C#N)c(SCc3nnc(-c4ccccc4[N+](=O)[O-])o3)nc12', 'EC50', '18.4 µM (active)'),
  ('Cc1ccccc1NC(=O)N1CCCC(c2nc(-c3ccc(C(C)C)cc3)no2)C1 (centres undefined)', 'EC50', '23.1 µM (active)'),
  ('COC(=O)C1C(=O)C=C(Nc2ccc(F)cc2F)CC1c1ccccc1 (centres undefined)', 'EC50', '17.6 µM (active)'),
  ('O=C(c1cc(-c2cccc(Cl)c2)on1)N1CCOCC1', 'EC50', '21.1 µM (active)'),
  ('Cc1ccc(-c2cc(C(=O)N3CCCc4ccccc43)no2)cc1', 'EC50', '11.8 µM (active)'),
  ('COc1cccc(/C=N/NC(=O)CCn2nnc3ccccc32)c1', 'EC50', '> 120 µM (not active)'),
  ('COc1ccc2c(c1)Cc1sc(NC(=O)c3ccccc3)nc1-2', 'EC50', '4.58 µM (active)'),
  ('COc1ccc2oc(=O)c(C(=O)NC3CCCCCC3)cc2c1', 'EC50', '19.8 µM (active)');

----------
# subjectOfTest: Methionyl-tRNA synthetase, putative (Trypanosoma brucei brucei, UniProt Q38C91)
# Sequence (Q38C91 whole entry): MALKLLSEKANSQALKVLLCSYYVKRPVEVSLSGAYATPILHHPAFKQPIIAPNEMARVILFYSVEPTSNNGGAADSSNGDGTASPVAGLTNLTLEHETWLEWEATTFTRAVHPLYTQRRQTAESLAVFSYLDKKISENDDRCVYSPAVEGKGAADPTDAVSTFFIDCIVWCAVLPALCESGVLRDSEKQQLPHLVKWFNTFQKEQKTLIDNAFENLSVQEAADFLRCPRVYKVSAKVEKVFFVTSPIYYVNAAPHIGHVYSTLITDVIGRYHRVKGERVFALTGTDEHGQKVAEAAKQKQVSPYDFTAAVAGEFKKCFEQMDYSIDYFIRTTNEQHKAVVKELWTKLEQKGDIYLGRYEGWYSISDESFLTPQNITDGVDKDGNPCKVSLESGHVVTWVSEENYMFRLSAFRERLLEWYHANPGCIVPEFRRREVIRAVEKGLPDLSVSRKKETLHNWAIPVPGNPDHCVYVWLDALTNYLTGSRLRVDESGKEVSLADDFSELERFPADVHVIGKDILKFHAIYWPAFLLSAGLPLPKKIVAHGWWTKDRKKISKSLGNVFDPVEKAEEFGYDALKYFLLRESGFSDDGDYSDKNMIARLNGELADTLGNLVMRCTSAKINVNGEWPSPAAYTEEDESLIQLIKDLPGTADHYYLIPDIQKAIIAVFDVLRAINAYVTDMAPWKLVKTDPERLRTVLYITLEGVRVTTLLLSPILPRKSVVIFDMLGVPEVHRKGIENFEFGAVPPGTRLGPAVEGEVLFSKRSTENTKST
# Type: functional, Trypanosoma brucei brucei strain 927/4 GUTat10.1
Active and inactive are the calls of the source.
Outcome codes: Y (active), N (inactive)

INSERT INTO results (compoundsmiles, answerlabel) VALUES
  ('O=C(Nc1cccnc1)c1ccc(COc2cc(Cl)ccc2Cl)o1', 'N'),
  ('O=C(NN1C(=O)/C(=C/c2ccc(O)cc2)SC1=S)c1cccc(O)c1', 'N'),
  ('O=C(CSc1ccc(-c2nc3ccccc3[nH]2)cn1)Nc1ccc(S(=O)(=O)NC2CC2)cc1', 'Y'),
  ('Cc1cccc(OCCCC(=O)Nc2nc3ccccc3[nH]2)c1', 'N');

----------
# subjectOfTest: Heat shock factor protein 1 (Mus musculus)
# Sequence (P38532 whole entry): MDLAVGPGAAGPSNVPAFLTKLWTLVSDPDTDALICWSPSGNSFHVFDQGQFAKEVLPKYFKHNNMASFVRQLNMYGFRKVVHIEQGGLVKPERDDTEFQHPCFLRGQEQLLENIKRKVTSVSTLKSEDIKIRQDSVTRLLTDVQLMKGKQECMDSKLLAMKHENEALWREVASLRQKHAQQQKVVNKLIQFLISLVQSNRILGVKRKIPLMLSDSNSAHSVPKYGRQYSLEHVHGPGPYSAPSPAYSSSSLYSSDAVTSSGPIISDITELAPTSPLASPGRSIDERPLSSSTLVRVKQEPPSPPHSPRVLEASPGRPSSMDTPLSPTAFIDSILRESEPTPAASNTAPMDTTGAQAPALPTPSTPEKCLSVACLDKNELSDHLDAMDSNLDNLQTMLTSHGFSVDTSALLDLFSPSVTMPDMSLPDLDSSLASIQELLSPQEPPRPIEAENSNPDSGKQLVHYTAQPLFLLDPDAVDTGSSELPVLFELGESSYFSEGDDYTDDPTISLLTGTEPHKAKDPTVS
# experiment: enhancement of HSF1-driven luciferase signal – cell-based, NIH3T3, luminescence, dose retest, confirmation (AID 435004);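 also: stress induced by proteasome inhibitor MG132 added 30 min after compound; luciferase reporter driven by HSF1 response element in NIH3T3 cells; actives raise luminescence as potentiators of the MG132 stress response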
# Type: functional
Calls of active or inactive are those of the source.
Outcome codes: label 1 = active, label 0 = inactive

INSERT INTO assay_data (compound, answerlabel) VALUES
  ('Cc1cccc(C)c1NCc1nnc(SCC(=O)Nc2nc(-c3ccccc3)cs2)n1-c1ccccc1', 'label 0'),
  ('CC(/C=C/c1cccs1)=C\C(=O)O', 'label 0'),
  ('c1ccc2nc3cc4[nH]cnc4cc3nc2c1', 'label 1'),
  ('CCC(C)NC(=O)CC(NS(=O)(=O)c1ccc(Cl)cc1)c1ccco1 (stereo not given)', 'label 0'),
  ('CCN(CC)CCCNC(=O)CSc1c2c(nc3cc(Cl)ccc13)CCCC2', 'label 1'),
  ('CN(C)/C=C/C(=O)c1cccc(Oc2ncccn2)c1', 'label 0'),
  ('CC(C)(CN)CC(=O)O', 'label 0'),
  ('COc1ccc(OC)c(-n2c(=O)c3ccccc3c3ccccc3c2=O)c1', 'label 1'),
  ('O=C(Nc1ccc(N2CCN(C(=O)c3ccccc3)CC2)cc1)c1ccc([N+](=O)[O-])o1', 'label 1'),
  ('Cc1ccc(N2Cc3ccccc3OC(C)C2=O)cc1 (stereo not given)', 'label 0'),
  ('COC(=O)C(C)Sc1nc2c(c(=O)n(C)c(=O)n2C)n1CCC(C)C (stereo not given)', 'label 0'),
  ('CCOC(=O)c1c(NC(C)=O)sc2c(O)c(CN3CCN(CC)CC3)ccc12', 'label 1'),
  ('CCOc1ccc(S(=O)(=O)NCCSc2ccccc2)cc1', 'label 0'),
  ('O=C1CC(N(Cc2ccc3c(c2)OCO3)C(=O)Nc2ccc(F)cc2)C(=O)N1c1ccccc1 (stereo not given)', 'label 0');
